conditions: in dichloromethane, 293.15 K
value_type: solubility (mole fraction)

Name the recorded solubility (mole fraction) for CC1CCC(=O)C1=O (stereo unspecified) .
0.18

###

conditions: in ethanol, 293.15 K
value_type: solubility (mole fraction)
One number for each entry.

Name the recorded solubility (mole fraction) for CC1CCC(=O)C1=O (stereo unspecified) .
0.0752

###

conditions: in acetone, 283.15 K
value_type: solubility (mole fraction)
Numbers only.

Name the recorded solubility (mole fraction) for CC1CCC(=O)C1=O (stereo unspecified) .
0.105

###

conditions: in ethyl acetate, 288.15 K
value_type: solubility (mole fraction)

Name the recorded solubility (mole fraction) for CC1CCC(=O)C1=O (stereo unspecified) .
0.0698
